Non-standard residues stand in square brackets, D forms with d. Residues, ends and D or L forms follow the SMILES beside them. *: point of attachment. X1 = O=C(CN1CCN(CCO)CC1)*
Reported Ki for target or system UniProt:P30874, by entry.
Sequence (P30874 whole entry): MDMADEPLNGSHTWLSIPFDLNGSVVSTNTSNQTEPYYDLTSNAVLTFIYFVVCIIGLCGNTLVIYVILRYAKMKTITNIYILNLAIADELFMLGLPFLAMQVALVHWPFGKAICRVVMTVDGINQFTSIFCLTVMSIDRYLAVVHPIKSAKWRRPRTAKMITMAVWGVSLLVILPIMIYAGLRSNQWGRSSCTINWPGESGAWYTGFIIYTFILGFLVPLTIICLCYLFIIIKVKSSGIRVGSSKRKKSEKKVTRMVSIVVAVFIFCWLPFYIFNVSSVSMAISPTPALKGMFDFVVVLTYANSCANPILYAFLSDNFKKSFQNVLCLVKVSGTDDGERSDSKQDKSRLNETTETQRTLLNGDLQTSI
Give the value in nM but do not write nM after it.

The cases that follow already have their Ki on record.
C[C@@H](O)[C@H](NC(=O)[C@H](Cc1ccccc1)NC(=O)[C@@H](NC(=O)[C@H](CCCCN)NC(=O)[C@@H](Cc1c[nH]c2ccccc12)NC(=O)[C@H](Cc1ccccc1)NC(=O)[C@H](Cc1ccccc1)NC(=O)[C@H](N)Cc1ccccc1)[C@@H](C)O)C(N)=O [BIM-23052] (H-[dF]FF[dW]KTFT-NH2) | 14.1
C[C@@H](O)[C@H](NC(=O)[C@H](Cc1ccccc1)NC(=O)[C@@H](NC(=O)[C@H](CCCCN)NC(=O)[C@@H](Cc1c[nH]c2ccccc12)NC(=O)[C@H](Cc1ccccc1)NC(=O)[C@H](Cc1ccccc1)NC(=O)[C@@H](Cc1ccccc1)NC(=O)CN1CCN(CCO)CC1)[C@@H](C)O)C(N)=O [Analog II] (X1-[dF]FF[dW]KTFT-NH2) | 4.15
CC(C)[C@@H]1NC(=O)[C@H](CCCCN)NC(=O)[C@@H](Cc2c[nH]c3ccccc23)NC(=O)[C@H](Cc2ccc(O)cc2)NC(=O)[C@@H](NC(=O)[C@H](N)Cc2ccc3ccccc3c2)CSSC[C@@H](C(=O)N[C@H](C(N)=O)[C@@H](C)O)NC1=O [BIM-23014, reference compound] | 1.09

From here, focus on the item given below.
Param readout= Ki; system= UniProt:P30874; entry= C[C@@H](O)[C@H](NC(=O)[C@H](Cc1ccccc1)NC(=O)[C@@H](NC(=O)[C@H](CCCCN)NC(=O)[C@@H](Cc1c[nH]c2ccccc12)NC(=O)[C@H](Cc1ccccc1)NC(=O)[C@H](Cc1ccccc1)NC(=O)[C@H](N)Cc1ccccc1)[C@@H](C)O)C(=O)O [Analog I, H-D-Phe-Phe-Phe-D-Trp-Lys-Thr-Phe-Thr-OH] (H-[dF]FF[dW]KTFT-OH) ; returns value. 14.2

Reference source: patent US6774109B2
